Biological target: norepinephrine transporter (NET) (Rattus norvegicus)
Construct: Cortex from rat brain was collected and homogenised; from tissue; host or cells: rat brain cortex membranes
Sequence (Q63380 1-617): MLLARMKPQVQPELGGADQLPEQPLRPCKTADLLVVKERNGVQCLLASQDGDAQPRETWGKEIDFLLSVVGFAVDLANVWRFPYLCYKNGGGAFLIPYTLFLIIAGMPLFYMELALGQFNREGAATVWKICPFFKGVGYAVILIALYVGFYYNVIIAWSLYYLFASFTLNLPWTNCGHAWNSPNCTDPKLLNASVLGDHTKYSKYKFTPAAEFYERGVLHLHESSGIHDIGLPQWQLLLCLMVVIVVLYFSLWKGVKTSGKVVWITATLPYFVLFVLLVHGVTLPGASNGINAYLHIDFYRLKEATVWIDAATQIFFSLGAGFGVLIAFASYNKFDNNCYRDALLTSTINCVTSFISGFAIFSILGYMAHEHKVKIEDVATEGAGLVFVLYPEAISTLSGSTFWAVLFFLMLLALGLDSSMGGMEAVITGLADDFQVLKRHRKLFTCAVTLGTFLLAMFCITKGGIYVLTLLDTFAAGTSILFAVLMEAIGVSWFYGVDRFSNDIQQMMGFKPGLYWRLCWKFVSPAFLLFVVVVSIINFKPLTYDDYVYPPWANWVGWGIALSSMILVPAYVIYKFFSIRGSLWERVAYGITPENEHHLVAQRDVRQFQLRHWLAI
Assay: In vitro assay for NET inhibition (radioligand binding, rat brain cortex)
Details: rat brain cortex membranes, [3H]Nixosetine radioligand; read-out: NET-inhibition (pIC50) (converted)
ENDPOINT_LABEL: IC50 (nM)
# unit: nM | format: bare number

(Q) Could you tell me which IC50 is on file for C=C1c2ccc(F)cc2C2CC(CNC)OC2c2ccccc21 (single isomer, unassigned) ?
(A) 6.31

(Q) Could you tell me which IC50 is on file for CNCC1CC2c3cc(F)ccc3C(C)(O)c3ccccc3C2O1 (single isomer, unassigned) [Compound 115] ?
(A) 1260

(Q) Could you tell me which IC50 is on file for C=C1c2ccc(F)cc2C2CC(CN(C)C)OC2c2cc(F)ccc21 (stereo not shown) ?
(A) 5.01

(Q) Could you tell me which IC50 is on file for CNC[C@H]1C[C@H]2c3cc(F)ccc3C(C)c3ccccc3[C@@H]2O1 (mixture of isomers) ?
(A) 31.6

(Q) Could you tell me which IC50 is on file for C[C@@H]1c2ccccc2[C@H]2C[C@H](CN(C)C)O[C@@H]2c2cc(N(C)C)ccc21 ?
(A) 398

(Q) Could you tell me which IC50 is on file for CNCC1CC2c3ccccc3C(C)c3ccc(F)cc3C2O1 (single isomer, unassigned) [Compound 74] ?
(A) 5.01

(Q) Could you tell me which IC50 is on file for CNCC1CC2c3ccccc3C(C)(O)c3ccc(F)cc3C2O1 (single isomer, unassigned) [Compound 125] ?
(A) 2000

(Q) Could you tell me which IC50 is on file for CNC[C@H]1C[C@@H]2c3ccccc3[C@H](O)c3ccc(F)cc3[C@H]2O1 ?
(A) 20
